Recorded % inhibition Apo pol 5' for the following molecules
assayed_target: P. falciparum apicoplast DNA polymerase (Pf-apPOL) (Plasmodium falciparum, UniProt Q8ILY1)
Sequence (Q8ILY1 entry or part of it): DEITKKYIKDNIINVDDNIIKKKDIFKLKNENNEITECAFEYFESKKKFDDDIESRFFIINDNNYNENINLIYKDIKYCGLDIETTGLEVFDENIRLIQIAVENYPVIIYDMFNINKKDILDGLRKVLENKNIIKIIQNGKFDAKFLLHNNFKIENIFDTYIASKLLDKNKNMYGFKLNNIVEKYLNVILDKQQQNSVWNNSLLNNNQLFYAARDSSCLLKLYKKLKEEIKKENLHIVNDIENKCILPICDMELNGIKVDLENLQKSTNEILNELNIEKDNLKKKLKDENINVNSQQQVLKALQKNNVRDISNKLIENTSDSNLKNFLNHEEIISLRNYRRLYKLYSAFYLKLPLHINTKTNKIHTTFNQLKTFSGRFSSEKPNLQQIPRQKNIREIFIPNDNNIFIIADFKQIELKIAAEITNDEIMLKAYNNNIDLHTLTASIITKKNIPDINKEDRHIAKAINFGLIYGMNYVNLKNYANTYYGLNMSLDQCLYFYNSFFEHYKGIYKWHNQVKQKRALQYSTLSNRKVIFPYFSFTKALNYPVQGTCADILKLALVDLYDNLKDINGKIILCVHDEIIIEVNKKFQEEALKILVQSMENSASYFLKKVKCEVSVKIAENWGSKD
test_method_notes: Fluorescence-based high-throughput DNA polymerase assay (molecular beacon), primary screen and dose-response
Format: biochemical
particulars: DRC-2, 5', concentration 5

molecule: O=c1cc(-c2ccccc2)oc2c(O)c(O)ccc12
unit_spec: %
% inhibition Apo pol 5': 18
//
molecule: CC1=NNC(=O)C1Oc1ccc(Cl)cc1Cl (centres unmarked)
unit_spec: %
% inhibition Apo pol 5': 12
//
molecule: COc1ccccc1CCC(=O)N1CCc2c(nc3cc(-c4ccccc4)[nH]n3c2=O)C1
unit_spec: %
% inhibition Apo pol 5': 26
//
molecule: CSC(C)C(=O)C=CN(C)C (centres unmarked)
unit_spec: %
% inhibition Apo pol 5': 14
//
molecule: O=C(O)CC1SC(c2ccc3c(c2)OCO3)=NC1=O (centres unmarked)
unit_spec: %
% inhibition Apo pol 5': 9
//
molecule: Cn1nc(C(=O)N2CCc3c(nc4cc(-c5ccccc5)[nH]n4c3=O)C2)c2ccccc21
unit_spec: %
% inhibition Apo pol 5': 20
//
molecule: Oc1ccc(N=Nc2ccccc2)c(O)c1
unit_spec: %
% inhibition Apo pol 5': 5.48
//
molecule: O=C(Nc1nnc(-c2cccs2)o1)c1ccc([N+](=O)[O-])o1
unit_spec: %
% inhibition Apo pol 5': 14

* * *

assayed_target: bacteriophage T4 DNA polymerase (Enterobacteria phage T4)
Construct: made in house
Sequence (P04415 whole entry): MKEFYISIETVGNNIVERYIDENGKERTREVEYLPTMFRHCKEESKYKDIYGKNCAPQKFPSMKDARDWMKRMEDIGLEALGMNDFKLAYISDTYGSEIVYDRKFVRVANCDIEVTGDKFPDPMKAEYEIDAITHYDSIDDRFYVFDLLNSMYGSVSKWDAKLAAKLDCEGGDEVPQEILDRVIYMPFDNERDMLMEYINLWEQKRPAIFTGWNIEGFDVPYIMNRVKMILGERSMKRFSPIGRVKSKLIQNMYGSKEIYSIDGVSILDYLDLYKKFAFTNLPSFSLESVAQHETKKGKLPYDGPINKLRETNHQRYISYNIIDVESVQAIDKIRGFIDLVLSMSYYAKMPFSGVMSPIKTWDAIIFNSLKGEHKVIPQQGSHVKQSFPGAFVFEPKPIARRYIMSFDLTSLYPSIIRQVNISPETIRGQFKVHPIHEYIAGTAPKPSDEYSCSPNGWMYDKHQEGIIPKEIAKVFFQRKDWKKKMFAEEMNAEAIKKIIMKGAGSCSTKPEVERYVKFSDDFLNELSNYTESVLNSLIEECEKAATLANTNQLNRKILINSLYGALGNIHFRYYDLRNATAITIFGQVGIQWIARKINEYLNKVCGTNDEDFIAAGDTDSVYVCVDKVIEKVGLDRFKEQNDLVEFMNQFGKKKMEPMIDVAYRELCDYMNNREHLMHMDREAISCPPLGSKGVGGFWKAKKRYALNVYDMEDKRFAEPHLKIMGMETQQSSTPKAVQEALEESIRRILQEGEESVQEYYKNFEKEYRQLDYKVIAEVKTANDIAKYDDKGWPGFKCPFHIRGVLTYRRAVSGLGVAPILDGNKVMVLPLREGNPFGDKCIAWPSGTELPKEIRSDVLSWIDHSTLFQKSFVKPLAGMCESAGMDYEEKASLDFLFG
test_method_notes: Counter-screen against bacteriophage T4 DNA polymerase
Assay type: biochemical
particulars: DRC-2; 10'; concentration 10

compound: Cc1ccc(-n2nnc(C(=O)O)c2-c2ccccn2)c(F)c1
% inhibition T4 10' / %: 30
//
compound: O=C1CCCC2=C1C(c1ccccn1)C1=C(CCCC1=O)O2
% inhibition T4 10' / %: 18
//
compound: Cc1ccccc1C(=O)N1CCc2c(nc3cc(-c4ccccc4)[nH]n3c2=O)C1
% inhibition T4 10' / %: 5
//
compound: CC(C)(C)OC(=O)COc1ccc2cc(-c3ccccc3)c(=O)oc2c1
% inhibition T4 10' / %: 13
//
compound: CC(NC(=O)Cc1cc(=O)[nH]c(SCc2cccc(Cl)c2)n1)c1ccccc1 (centres unmarked)
% inhibition T4 10' / %: 19
//
compound: Cc1ccc(C(=O)/C=C/C=C/C=C/N(C)C)o1
% inhibition T4 10' / %: 11
//
compound: Cc1ccc2c(C(=O)NCCc3cccnc3)cc(NC(=O)C(C)C)cc2n1
% inhibition T4 10' / %: 30
//
compound: COc1ccc(-c2n[nH]cc2Oc2ccc(Cl)cc2)c(O)c1
% inhibition T4 10' / %: -25

* * *

Recorded % inhibition apPOL 180' for the following molecules
assayed_target: P. falciparum apicoplast DNA polymerase (Pf-apPOL) (Plasmodium falciparum)
test_method_notes: Fluorescence-based high-throughput DNA polymerase assay (molecular beacon), primary screen and dose-response
Type: biochemical
particulars: DRC-1; 180'; concentration 40

molecule: O=C1N=C(Nc2cccc(Cl)c2Cl)S/C1=C\c1ccco1 [Molecule 3, O=C1N=C(S/C/1=C\c1ccco1)Nc1cccc(c1Cl)Cl]
assayed_target: P. falciparum apicoplast DNA polymerase (Pf-apPOL) (Plasmodium falciparum)
% inhibition apPOL 180' / %: 70.3618
--
molecule: Cc1cc(C)c(O)c(/N=C/c2cc([N+](=O)[O-])cc(Br)c2O)c1 [KU0046272]
assayed_target: P. falciparum apicoplast DNA polymerase (Pf-apPOL) (Plasmodium falciparum)
% inhibition apPOL 180' / %: 35.3485
--
molecule: Cc1ccccc1C(=O)N1CCc2c(nc3cc(-c4ccccc4)[nH]n3c2=O)C1 [Molecule 41]
assayed_target: P. falciparum apicoplast DNA polymerase (Pf-apPOL) (Plasmodium falciparum)
% inhibition apPOL 180' / %: 64.8377
--
molecule: CC(=O)c1cc2c(N)c(/C(N)=N/C#N)sc2nc1C [KU0015866]
assayed_target: P. falciparum apicoplast DNA polymerase (Pf-apPOL) (Plasmodium falciparum)
% inhibition apPOL 180' / %: 18.0593
